tested-target: T1, human alpha CGRP (SEQ ID NO: 80) (human, not fully specified)
T1 peptide: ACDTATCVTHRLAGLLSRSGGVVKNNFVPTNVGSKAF
assay: cell-based or functional assay
Exercise: for every item that follows, state its recorded IC50, CGRP-induced cAMP production, SK-N-MC cells.
Please give a number only; it is taken to be in nM.

So, lipocalin mutein SEQ ID NO: 20 (designed binder, biotinylated by NHS chemistry for capture in SPR) QDSTSDLIPAPPLSKVPLQQNFQDNQFHGKWYVVGRAGNDTLRKDKDPEKMEATIYELKEDKSYNVTDVGFVQKKCMYVIHTFVPGSQPGEFTLGNIKSYPGVTSALVRVVSTNYNQHAMVFVKLVKQNRELFEITLYGRTKELTSELKENFIRFSKSLGLPENHIVFPVPIDQCIDGSAWSHPQFEK ? Its IC50, CGRP-induced cAMP production, SK-N-MC cells was 0.14

So, lipocalin mutein SEQ ID NO: 24 (designed binder, biotinylated by NHS chemistry for capture in SPR) QDSTSDLIPAPPLSKVPLQQNFQDNQFHGKWYVVGWAGNTLLREDKDPIKMQAKIYELKEDRSYNVTWVYFAEKKCNYHIETFVPGSQPGEFTLGTIKSYPGETPILVRVVSTNYNQHAMVFFKGVNQNREIFEIILYGRTKELTNELKENFIRFSKSLGLPENHIVFPVPIDQCIDGSAWSHPQFEK ? Its IC50, CGRP-induced cAMP production, SK-N-MC cells was 0.12

So, lipocalin mutein SEQ ID NO: 27 (designed binder, biotinylated by NHS chemistry for capture in SPR) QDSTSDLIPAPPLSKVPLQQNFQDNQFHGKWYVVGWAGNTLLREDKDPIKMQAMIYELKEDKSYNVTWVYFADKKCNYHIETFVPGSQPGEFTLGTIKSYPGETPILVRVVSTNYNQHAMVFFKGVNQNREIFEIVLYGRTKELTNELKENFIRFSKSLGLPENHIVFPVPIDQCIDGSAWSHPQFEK ? Its IC50, CGRP-induced cAMP production, SK-N-MC cells was 0.1
